Please respond with reported normalised growth rate inhibition for every item in the list.
# Tested on: SKBR3
# Test summary: normalised growth rate inhibition (GR value) relative to DMSO control (GR (1 = untreated growth, 0 = cytostasis, <0 = cytotoxic)); higher = less growth inhibition
# Condition parameters: 0.37 µM; 72 h
API doc: respond with a numeric literal and nothing else, no unit.

normalised growth rate inhibition for Cc1cc(C(=O)NOCCO)c(Nc2ccc(I)cc2F)n(C)c1=O [AZD-8330] ? 0.708

normalised growth rate inhibition for COc1cc2ncnc(Nc3ccc(F)c(Cl)c3)c2cc1OCCCN1CCOCC1 [gefitinib] ? 0.567

normalised growth rate inhibition for Cc1cn(-c2cc(NC(=O)c3ccc(C)c(Nc4nccc(-c5cccnc5)n4)c3)cc(C(F)(F)F)c2)cn1 [nilotinib] ? 1.15

normalised growth rate inhibition for Cc1cc2c(F)c(Oc3ncnn4cc(OC[C@@H](C)O)c(C)c34)ccc2[nH]1 [brivanib] ? 0.807

normalised growth rate inhibition for CCc1cc(Nc2nccc(-c3c(-c4ccc(OC)c(C(=O)Nc5c(F)cccc5F)c4)nc4ccccn34)n2)c(OC)cc1N1CCC(N2CCN(S(C)(=O)=O)CC2)CC1 ? 0.98

normalised growth rate inhibition for CC(C)(C)c1cnc(CSc2cnc(NC(=O)C3CCNCC3)s2)o1 ? -0.312

normalised growth rate inhibition for C[C@@H](Oc1cc(-c2cnn(C3CCNCC3)c2)cnc1N)c1c(Cl)ccc(F)c1Cl [crizotinib] ? 0.753

normalised growth rate inhibition for Cc1[nH]c(/C=C2\C(=O)Nc3ccc(S(=O)(=O)Cc4c(Cl)cccc4Cl)cc32)c(C)c1C(=O)N1CCC[C@@H]1CN1CCCC1 ? 1.07

normalised growth rate inhibition for CC1=C(CO)C(=O)O[C@@H]([C@@H](C)[C@H]2CC[C@H]3[C@@H]4C[C@H]5O[C@]56[C@@H](O)C=CC(=O)[C@]6(C)[C@H]4CC[C@]23C)C1 [withaferin-a] ? 0.174

normalised growth rate inhibition for O=c1cc(N2CCOCC2)oc2c(-c3cccc4c3sc3ccccc34)cccc12 [NU-7441] ? 0.868

normalised growth rate inhibition for C=CC(=O)Nc1cc2c(Nc3ccc(F)c(Cl)c3)ncnc2cc1OCCCN1CCOCC1 [canertinib] ? -0.0304

normalised growth rate inhibition for OCCCNc1cc(-c2ccnc(Nc3cccc(Cl)c3)n2)ccn1 ? -0.227

normalised growth rate inhibition for CCn1c(-c2nonc2N)nc2c(C#CC(C)(C)O)ncc(OC[C@H]3CCCNC3)c21 ? 0.556

normalised growth rate inhibition for Nc1ccc(-c2ccc3ncc4ccc(=O)n(-c5cccc(C(F)(F)F)c5)c4c3c2)cn1 [torin-2] ? -0.158

normalised growth rate inhibition for Cc1cc(Nc2cc(N3CCN(C)CC3)nc(Sc3ccc(NC(=O)C4CC4)cc3)n2)n[nH]1 [tozasertib] ? -0.0975

normalised growth rate inhibition for CC[C@H](CO)Nc1nc(NCc2ccccc2)c2ncn(C(C)C)c2n1 [roscovitine] ? 0.979

normalised growth rate inhibition for CCC(=O)N1CCN(c2ccc(-n3c(=O)ccc4cnc5ccc(-c6cnc7ccccc7c6)cc5c43)cc2C(F)(F)F)CC1 [torin-1] ? -0.0642

normalised growth rate inhibition for CCCS(=O)(=O)Nc1ccc(F)c(C(=O)c2c[nH]c3ncc(Cl)cc23)c1F [PLX-4720] ? 1.04

normalised growth rate inhibition for CC(=O)Nc1nc(C)c(-c2ccc(Cl)c(S(=O)(=O)NCCO)c2)s1 ? 1.01

normalised growth rate inhibition for O=C(NOC[C@H](O)CO)c1ccc(F)c(F)c1Nc1ccc(I)cc1F ? 0.913

normalised growth rate inhibition for Cc1nc(Nc2ncc(C(=O)Nc3c(C)cccc3Cl)s2)cc(N2CCN(CCO)CC2)n1 [dasatinib] ? 0.942

normalised growth rate inhibition for COC(=O)c1ccc2c(C(=Nc3ccc(N(C)C(=O)CN4CCN(C)CC4)cc3)c3ccccc3)c(O)[nH]c2c1 [nintedanib] ? 0.947

----------
Please respond with reported normalised growth rate inhibition for every item in the list.
# Tested on: SKBR3
# Test summary: normalised growth rate inhibition (GR value) relative to DMSO control (GR (1 = untreated growth, 0 = cytostasis, <0 = cytotoxic)); higher = less growth inhibition
# Condition parameters: 10 µM; 72 h

normalised growth rate inhibition for O=c1cc(N2CCOCC2)oc2c(-c3cccc4c3sc3ccccc34)cccc12 [NU-7441] ? 0.199

normalised growth rate inhibition for Cc1cc(C(=O)NOCCO)c(Nc2ccc(I)cc2F)n(C)c1=O [AZD-8330] ? 0.814

normalised growth rate inhibition for FC(F)c1nc2ccccc2n1-c1nc(N2CCOCC2)nc(N2CCOCC2)n1 [ZSTK-474] ? -0.031

normalised growth rate inhibition for Cn1cc(-c2[nH]c3cc(NC(=O)[C@H](N)C4CCCCC4)cc4c3c2C=NNC4=O)cn1 ? -0.183

normalised growth rate inhibition for Cc1nc(Nc2ncc(C(=O)Nc3c(C)cccc3Cl)s2)cc(N2CCN(CCO)CC2)n1 [dasatinib] ? -0.166

normalised growth rate inhibition for O=C1NC(=O)/C(=C/c2ccc3nccc(-c4ccncc4)c3c2)S1 ? -0.421

normalised growth rate inhibition for Cc1ccc(NC(=O)c2ccc(CN3CCN(C)CC3)cc2)cc1Nc1nccc(-c2cccnc2)n1 [imatinib] ? 0.991

normalised growth rate inhibition for COC1=C2C[C@@H](C)C[C@H](OC)[C@H](O)[C@@H](C)/C=C(\C)[C@H](OC(N)=O)[C@@H](OC)/C=C\C=C(/C)C(=O)NC(=CC1=O)C2=O [geldanamycin] ? -0.441

normalised growth rate inhibition for O=C(NC1CCNCC1)c1n[nH]cc1NC(=O)c1c(Cl)cccc1Cl [AT-7519] ? -0.523

normalised growth rate inhibition for CCN(CC)CCCCNc1ncc2cc(-c3cc(OC)cc(OC)c3)c(NC(=O)NC(C)(C)C)nc2n1 ? 0.209

normalised growth rate inhibition for CNC(=O)Nc1ccc(-c2nc(N3CC4CCC(C3)O4)c3cnn(C4CCC5(CC4)OCCO5)c3n2)cc1 ? -0.0635

normalised growth rate inhibition for C[C@]1(O)C[C@@H](c2nc(-c3ccc4ccc(-c5ccccc5)nc4c3)c3c(N)nccn32)C1 [linsitinib] ? 0.538

normalised growth rate inhibition for CS(=O)(=O)CCNCc1ccc(-c2ccc3ncnc(Nc4ccc(OCc5cccc(F)c5)c(Cl)c4)c3c2)o1 [lapatinib] ? 0.133

normalised growth rate inhibition for CC1=C(CO)C(=O)O[C@@H]([C@@H](C)[C@H]2CC[C@H]3[C@@H]4C[C@H]5O[C@]56[C@@H](O)C=CC(=O)[C@]6(C)[C@H]4CC[C@]23C)C1 [withaferin-a] ? -0.278

normalised growth rate inhibition for CN(c1ccccc1CNc1nc(Nc2ccc3c(c2)CC(=O)N3)ncc1C(F)(F)F)S(C)(=O)=O ? -0.141

normalised growth rate inhibition for Cc1cc(Nc2cc(N3CCN(C)CC3)nc(Sc3ccc(NC(=O)C4CC4)cc3)n2)n[nH]1 [tozasertib] ? -0.044

normalised growth rate inhibition for COc1cc2ncnc(Nc3ccc(F)c(Cl)c3)c2cc1OCCCN1CCOCC1 [gefitinib] ? 0.048

normalised growth rate inhibition for CN(c1ncccc1CNc1nc(Nc2ccc3c(c2)CC(=O)N3)ncc1C(F)(F)F)S(C)(=O)=O ? -0.254

normalised growth rate inhibition for CC(C)(C)c1cnc(CSc2cnc(NC(=O)C3CCNCC3)s2)o1 ? -0.367

normalised growth rate inhibition for Cn1cc(C2=C(c3cn(C4CCN(Cc5ccccn5)CC4)c4ccccc34)C(=O)NC2=O)c2ccccc21 [enzastaurin] ? 0.958

normalised growth rate inhibition for CCOc1cc2ncc(C#N)c(Nc3ccc(OCc4ccccn4)c(Cl)c3)c2cc1NC(=O)/C=C/CN(C)C [neratinib] ? -0.215

normalised growth rate inhibition for Cn1c(=O)n(-c2ccc(C(C)(C)C#N)cc2)c2c3cc(-c4cnc5ccccc5c4)ccc3ncc21 [NVP-BEZ235] ? 0.0305

----------
# Test system: MCF7
# Test summary: normalised growth rate inhibition (GR value) relative to DMSO control (GR (1 = untreated growth, 0 = cytostasis, <0 = cytotoxic)); higher = less growth inhibition
# Condition parameters: 10 µM; 72 h
Please respond with reported normalised growth rate inhibition for every item in the list.
API doc: respond with a numeric literal and nothing else, no unit.

normalised growth rate inhibition for Oc1cccc(-c2nc(N3CCOCC3)c3oc4ncccc4c3n2)c1 ? -0.153

normalised growth rate inhibition for CNC(=O)c1cc(Oc2ccc(NC(=O)Nc3ccc(Cl)c(C(F)(F)F)c3)cc2)ccn1 ? 0.247

normalised growth rate inhibition for O=C(NC1CCNCC1)c1n[nH]cc1NC(=O)c1c(Cl)cccc1Cl ? -0.404

normalised growth rate inhibition for CN(c1ccccc1CNc1nc(Nc2ccc3c(c2)CC(=O)N3)ncc1C(F)(F)F)S(C)(=O)=O ? -0.28

normalised growth rate inhibition for CS(=O)(=O)N1CCN(Cc2cc3nc(-c4cccc5[nH]ncc45)nc(N4CCOCC4)c3s2)CC1 ? -0.081

normalised growth rate inhibition for C[C@@H]1C[C@H]2O[C@@H]2/C=C\C=C\C(=O)Cc2c(Cl)c(O)cc(O)c2C(=O)O1 ? -0.0962

normalised growth rate inhibition for COc1cc(N2CCC(C(N)=O)CC2)ccc1Nc1nc(N)c(Cl)c(Nc2ccccc2S(=O)(=O)C(C)C)n1 ? -0.0672

normalised growth rate inhibition for Cc1cc([C@@H](C)Nc2ccccc2C(=O)O)c2nc(N3CCOCC3)cc(=O)n2c1 ? 0.0729

normalised growth rate inhibition for Cn1c(=O)n(-c2ccc(C(C)(C)C#N)cc2)c2c3cc(-c4cnc5ccccc5c4)ccc3ncc21 ? 0.068

normalised growth rate inhibition for C[C@@H](Oc1cc(-c2cnn(C3CCNCC3)c2)cnc1N)c1c(Cl)ccc(F)c1Cl ? -0.174

normalised growth rate inhibition for Nc1cc(C(F)(F)F)c(-c2cc(N3CCOCC3)nc(N3CCOCC3)n2)cn1 ? -0.189

normalised growth rate inhibition for Cc1[nH]c(/C=C2\C(=O)Nc3ccc(S(=O)(=O)N(C)c4cccc(Cl)c4)cc32)c(C)c1C(=O)N1CCN(C)CC1 ? 0.0989

normalised growth rate inhibition for N#CC[C@H](C1CCCC1)n1cc(-c2ncnc3[nH]ccc23)cn1 ? 0.778

normalised growth rate inhibition for CC(C)CC(=O)Nc1n[nH]c2c1CN(C(=O)C1CCN(C)CC1)C2(C)C ? -0.328

normalised growth rate inhibition for CCN(CC)CCCCNc1ncc2cc(-c3cc(OC)cc(OC)c3)c(NC(=O)NC(C)(C)C)nc2n1 ? 0.572

normalised growth rate inhibition for Nc1ccc(C(=O)Nc2cccc(-c3nc(N4CCOCC4)c4oc5ncccc5c4n3)c2)cn1 ? -0.043

normalised growth rate inhibition for Cc1cnc(-c2cnc(NCCNc3ccc(C#N)cn3)nc2-c2ccc(Cl)cc2Cl)[nH]1 ? 0.222

normalised growth rate inhibition for Cn1cc(-c2[nH]c3cc(NC(=O)[C@H](N)C4CCCCC4)cc4c3c2C=NNC4=O)cn1 ? 0.0527

normalised growth rate inhibition for CN1CCN(CCOc2cc(OC3CCOCC3)c3c(Nc4c(Cl)ccc5c4OCO5)ncnc3c2)CC1 ? 0.266

normalised growth rate inhibition for NC1(c2ccc(-c3nc4ccn5c(=O)[nH]nc5c4cc3-c3ccccc3)cc2)CCC1 ? -0.104

normalised growth rate inhibition for Cc1nc(NC(=O)N2CCC[C@H]2C(N)=O)sc1-c1ccnc(C(C)(C)C(F)(F)F)c1 ? -0.0344

normalised growth rate inhibition for C[C@]1(O)C[C@@H](c2nc(-c3ccc4ccc(-c5ccccc5)nc4c3)c3c(N)nccn32)C1 ? 0.271

normalised growth rate inhibition for CS(=O)(=O)CCNCc1ccc(-c2ccc3ncnc(Nc4ccc(OCc5cccc(F)c5)c(Cl)c4)c3c2)o1 ? 0.321

normalised growth rate inhibition for CN1CC[C@H](c2c(O)cc(O)c3c(=O)cc(-c4ccccc4Cl)oc23)[C@H](O)C1 ? -0.364

normalised growth rate inhibition for C=CC(=O)Nc1cc(-n2c(=O)ccc3cnc4ccc(-c5cn[nH]c5)cc4c32)ccc1C ? -0.0977

normalised growth rate inhibition for O=c1cc(N2CCOCC2)oc2c(-c3cccc4c3sc3ccccc34)cccc12 ? 0.241

normalised growth rate inhibition for Cc1ccc(F)c(NC(=O)Nc2ccc(-c3cccc4[nH]nc(N)c34)cc2)c1 ? 0.0601
